Molecular target: human Nav1.5 (Homo sapiens (Human), UniProt Q14524)
Sequence (Q14524 whole entry): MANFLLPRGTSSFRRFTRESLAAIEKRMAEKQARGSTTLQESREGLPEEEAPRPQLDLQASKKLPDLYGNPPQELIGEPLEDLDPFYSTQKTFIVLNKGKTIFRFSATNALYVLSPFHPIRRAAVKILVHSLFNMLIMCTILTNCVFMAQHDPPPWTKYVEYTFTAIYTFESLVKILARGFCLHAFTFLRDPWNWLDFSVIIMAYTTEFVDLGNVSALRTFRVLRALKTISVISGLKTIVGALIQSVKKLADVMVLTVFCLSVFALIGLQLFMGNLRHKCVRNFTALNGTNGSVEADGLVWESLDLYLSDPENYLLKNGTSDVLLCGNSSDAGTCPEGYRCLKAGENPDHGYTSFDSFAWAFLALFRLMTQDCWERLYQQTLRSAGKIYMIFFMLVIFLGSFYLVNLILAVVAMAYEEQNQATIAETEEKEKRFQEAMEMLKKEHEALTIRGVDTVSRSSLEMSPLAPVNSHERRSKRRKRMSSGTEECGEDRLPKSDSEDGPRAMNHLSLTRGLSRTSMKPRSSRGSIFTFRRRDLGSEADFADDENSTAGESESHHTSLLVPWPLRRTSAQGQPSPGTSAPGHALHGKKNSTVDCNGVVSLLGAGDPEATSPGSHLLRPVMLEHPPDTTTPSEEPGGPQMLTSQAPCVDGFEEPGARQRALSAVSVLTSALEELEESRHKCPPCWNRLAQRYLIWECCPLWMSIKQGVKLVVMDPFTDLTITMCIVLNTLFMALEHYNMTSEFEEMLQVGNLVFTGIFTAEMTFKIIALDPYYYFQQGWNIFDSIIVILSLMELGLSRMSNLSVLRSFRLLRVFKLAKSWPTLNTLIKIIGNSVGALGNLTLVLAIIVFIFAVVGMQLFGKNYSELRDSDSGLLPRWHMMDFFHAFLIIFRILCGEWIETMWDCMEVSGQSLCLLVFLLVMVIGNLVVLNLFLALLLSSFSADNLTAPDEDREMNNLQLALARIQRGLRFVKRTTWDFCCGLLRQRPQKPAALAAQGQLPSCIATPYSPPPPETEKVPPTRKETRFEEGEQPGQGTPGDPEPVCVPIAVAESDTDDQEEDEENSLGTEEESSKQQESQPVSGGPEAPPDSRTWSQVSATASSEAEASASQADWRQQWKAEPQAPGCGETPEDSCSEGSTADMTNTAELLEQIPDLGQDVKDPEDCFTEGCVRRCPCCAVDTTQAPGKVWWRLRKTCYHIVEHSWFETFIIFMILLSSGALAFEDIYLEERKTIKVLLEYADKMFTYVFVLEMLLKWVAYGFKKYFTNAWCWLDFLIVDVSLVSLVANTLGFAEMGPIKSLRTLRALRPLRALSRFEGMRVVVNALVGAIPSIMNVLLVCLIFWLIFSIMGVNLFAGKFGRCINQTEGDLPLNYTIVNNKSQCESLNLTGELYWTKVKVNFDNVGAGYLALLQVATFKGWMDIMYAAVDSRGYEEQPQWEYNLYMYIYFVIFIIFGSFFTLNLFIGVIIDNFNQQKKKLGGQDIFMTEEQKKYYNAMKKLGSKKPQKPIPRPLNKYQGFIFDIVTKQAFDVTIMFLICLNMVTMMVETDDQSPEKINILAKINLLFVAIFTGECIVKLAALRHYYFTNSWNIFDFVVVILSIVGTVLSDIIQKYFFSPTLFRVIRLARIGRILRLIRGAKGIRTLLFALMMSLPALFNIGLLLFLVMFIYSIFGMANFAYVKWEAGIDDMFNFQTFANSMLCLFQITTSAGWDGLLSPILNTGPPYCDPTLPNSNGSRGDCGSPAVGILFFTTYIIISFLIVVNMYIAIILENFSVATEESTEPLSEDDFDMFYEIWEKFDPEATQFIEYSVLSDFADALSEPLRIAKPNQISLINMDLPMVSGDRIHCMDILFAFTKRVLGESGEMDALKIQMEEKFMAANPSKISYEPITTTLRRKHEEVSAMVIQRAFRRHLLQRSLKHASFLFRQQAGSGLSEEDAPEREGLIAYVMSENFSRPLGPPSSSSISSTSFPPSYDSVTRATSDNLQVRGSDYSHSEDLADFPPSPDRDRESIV
Assay: Human Nav1.5 inhibitory activity evaluation (automated patch clamp QPatch16X, HEK293 cells stably expressing human Nav1.5)
Assay type: cell-based
Details: human Nav1.5, automated patch clamp
Below: a set of entries, each annotated with reported IC50.
READOUT LABEL: IC50

COMPOUND	MEASUREMENT TARGET	VALUE
O=C(N[C@H]1COc2ccccc2C1)c1nn2c(c1-c1ccccc1)CN(CC(F)(F)F)CC2 [Example 275]	human Nav1.5 (Homo sapiens (Human), UniProt Q14524)	1 to 3 µM
O=C(N[C@H]1COc2ccc(COCC(F)(F)F)cc2C1)c1cc2n(n1)CC(COCC(F)(F)F)O2 (single isomer, unassigned) [188 (isomer A)]	human Nav1.5 (Homo sapiens (Human), UniProt Q14524)	< 1 µM
Cn1ccc(-c2ccc3c(c2)C[C@@H](NC(=O)c2cc4n(n2)CC(CCOCC(F)(F)F)O4)CO3)n1 (stereo partly shown) [Example 205]	human Nav1.5 (Homo sapiens (Human), UniProt Q14524)	≥ 3 µM
CC(C)(C)OCCN1CCn2nc(C(=O)N[C@H]3COc4ccc(C(F)F)cc4C3)cc2C1 [Example 272]	human Nav1.5 (Homo sapiens (Human), UniProt Q14524)	≥ 3 µM
N#Cc1ccc(-c2ccc3c(c2)C[C@@H](NC(=O)c2cc4n(n2)CCC(C(F)(F)F)O4)CO3)cn1 (stereo partly shown) [Example 174]	human Nav1.5 (Homo sapiens (Human), UniProt Q14524)	≥ 3 µM
COCc1ccc2c(c1)C[C@@H](NC(=O)c1cc3n(n1)CCC(c1ccccc1F)O3)CO2 (stereo partly shown) [Example 361]	human Nav1.5 (Homo sapiens (Human), UniProt Q14524)	≥ 3 µM
O=C(N[C@H]1COc2ccc(C(F)(F)F)cc2C1)c1cc2n(n1)CCC(OCC(F)(F)F)CO2 (single isomer, unassigned) [257 (isomer A)]	human Nav1.5 (Homo sapiens (Human), UniProt Q14524)	≥ 3 µM

====

# reported pIC50; entries follow
Target: UniProt:Q14524
Experiment: Human Nav1.5 inhibitory activity evaluation (automated patch clamp QPatch16X, HEK293 cells stably expressing human Nav1.5)
Assay type: cell-based
Settings: human Nav1.5, automated patch clamp
pIC50: −log10 of the molar value.
READOUT LABEL: pIC50

MOLECULE	READOUT LABEL	VALUE
O=C(N[C@H]1COc2cccc(Cl)c2C1)c1cc2n(n1)CCN(CCC(F)(F)F)C2	pIC50	≤ 5.52
N#Cc1ccc2c(c1)C[C@@H](NC(=O)c1cc3n(n1)CCC(C(F)(F)F)O3)CO2 (stereo partly shown) [Example 374]	pIC50	≤ 5.52
O=C(N[C@H]1COc2ccc(CC(F)F)cc2C1)c1cc2n(n1)CCN(CCC1CC1)C2	pIC50	5.52 to 6.00
N#Cc1ccc2c(c1)C[C@@H](NC(=O)c1cc3n(n1)CCC(CSC(F)(F)F)O3)CO2 (stereo partly shown) [Example 155]	pIC50	≤ 5.52
CCNc1cccc(C2CCc3nc(C(=O)N4CCC(c5ccccc5)C4)cn3C2)n1 (stereo not shown)	pIC50	5.52 to 6.00
O=C(N[C@H]1COc2ccc(COCC(F)(F)F)cc2C1)c1cc2n(n1)CCC(C1CCOCC1)O2 (single isomer, unassigned) [615 (isomer A)]	pIC50	5.52 to 6.00
O=C(N[C@H]1COc2ccc(-c3cncnc3)cc2C1)c1cc2n(n1)CCC(c1ccccc1F)O2 (stereo partly shown)	pIC50	≤ 5.52
